# %Inh annotations
# Test system: LATS1
# conditions: concentration: 1 μM, replicates: in singlicate; n = 1;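 also: KINOMEscan kinase panel screen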
Entry rule: numbers only, all in %.

| compound | targetOfAssay | u | %Inh |
| --- | --- | --- | --- |
| CCCCc1nn2ncccc2c1-c1ccnc(NC2CC2)n1 [GW684374] | LATS1 | % | 0 |
| CC(C)c1ccc(O)cc1Nc1ccnc2ccc(C(F)(F)F)cc12 [GW482059] | LATS1 | % | 0 |
| COC(=O)C(NC(=O)NC1CCN(c2ccnc(Nc3ccc(F)cc3)n2)C1)c1ccccc1 (stereo not drawn) [GSK1379712] | LATS1 | % | 13 |
| COc1nccc(-c2c(-c3ccc(F)cc3)ncn2CCCN2CCOCC2)n1 [SB-282852] | LATS1 | % | 0 |

Entry under test: COc1ccc(Nc2nccc(N3CCC(NC(=O)C(C)c4ccc(Cl)cc4)C3)n2)cc1 (stereo not drawn) [GSK1379735] . Its %Inh was 4

Entry under test: O=C(Nc1n[nH]c2nc(-c3ccco3)c(Br)cc12)C1CCN(Cc2ccccc2)C1.O=C(O)[C@H](O)[C@@H](O)C(=O)O (stereo not drawn) [SB-742034] . Its %Inh was 0

Entry under test: CNCc1ccc2nc(NC(=O)c3ccc(C(C)(C)C)cc3)cn2c1 . Its %Inh was 2

Entry under test: O=C(Nc1n[nH]c2nc(-c3cccs3)c(Br)cc12)C1CC1 [SB-735297] . Its %Inh was 11

Entry under test: CNc1nc(-c2ccc3c(N)n[nH]c3c2)cc(N2C[C@@H](C(=O)Nc3ccccc3)CC[C@H]2C)n1 [GSK2298859] . Its %Inh was 0

====

# System: MAK
# conditions: concentration: 1 μM, replicates: in singlicate; n = 1
# %Inh annotations
State the result as a value with its unit after it.

Field: example entries. Status: answers known.
| compound | targetOfAssay | %Inh |
| --- | --- | --- |
| O=C(Nc1n[nH]c2nc(-c3ccco3)c(Br)cc12)C1CCN(Cc2ccccc2)C1.O=C(O)[C@H](O)[C@@H](O)C(=O)O (stereo not shown) | MAK | 25% |
| Nc1ncnc2occ(-c3ccc4c(c3)CCN4C(=O)Cc3cc(F)ccc3F)c12 | MAK | 0% |
| COc1ccc(Nc2nccc(-c3ccc(NC(=O)c4cc5cc(F)ccc5[nH]4)cc3)n2)cc1 | MAK | 22% |

Entry under test: Cn1cncc1-c1cc2c(Nc3ccc(OCc4ccccc4)cc3)ncnc2cn1 . Its %Inh was 19%

====

# Tested on: ULK1
# conditions: concentration: 1 μM, replicates: in singlicate; n = 1
Label scheme for %Inh: lower than 20% is not satisfied, 20% and above is satisfied.

| compound | classification |
| --- | --- |
| Nc1ncnc2occ(-c3ccc4c(c3)CCN4C(=O)Cc3cc(F)ccc3F)c12 [GSK2645446] | not satisfied |

Read the next record carefully.
hey, is %Inh for this one >= 20%? Cn1cncc1C(=O)NC1CCN(c2ccnc(Nc3ccc(F)cc3)n2)C1 (stereo not shown) [GSK1379717]
not satisfied

====

# Test system: CDK5
# conditions: concentration: 1 μM, replicates: in singlicate; n = 1
measuredEndpoint: %Inh (%)
Entry rule: numbers only, all in %.

| compound | u | %Inh |
| --- | --- | --- |
| COc1ccc(CSc2nnc(-c3ccc4nccn4c3)o2)cc1C(F)(F)F | % | 10 |
| O=C(Nc1n[nH]c2nc(-c3cccs3)c(Br)cc12)C1CCCC1 [SB-743341] | % | 24 |
| CC(=O)c1cccc(NC(=O)NC2CCN(c3ccnc(Nc4ccc(F)cc4)n3)C2)c1 (centres unmarked) [GSK1379710] | % | 0 |
| CCc1ccc(-c2ccc3c(c2)-c2n[nH]cc2S(=O)(=O)N3C)cc1 | % | 15 |

Entry under test: CCCCc1nn2ncccc2c1-c1ccnc(NC2CC2)n1 [GW684374] . Its %Inh was 0
